The measurements presented in this section are drawn from PubChem BioAssay (EPA / NIEHS).

Assay: ATG_NFI_CIS: Attagene CIS-FACTORIAL HepG2 Assay for human Nuclear Factor I (NFI) (AID 2282989)
Conditions: HepG2 cis-regulatory reporter, NFI response element transcription; actives raise or lower the signal
Activity calls are given as the source filed them. The calls were made as follows: active = hit-call score of the fitted dose curve at least 0.9, where 1 is the maximum; inactive = score below 0.9.
Can you answer with just one of these options? active, inactive

Past entries and their recorded results:
>>> print(df.to_string())
                                   compound     class
0                Cc1c(Cl)c(=O)oc2cc(O)ccc12  inactive
1  CN1Cc2c(N)cccc2C(c2ccccc2)C1 (centres undefined)  inactive
2                          Cc1ccc(C(=O)O)o1  inactive
3  OC[C@H]1O[C@H](O[C@]2(CCl)O[C@H](CCl)[C@@H](O)[C@@H]2O)[C@H](O)[C@@H](O)[C@H]1Cl  inactive

# outcome recorded in this test, key = `C#C[C@]1(O)CC[C@H]2[C@@H]3CCC4=Cc5oncc5C[C@]4(C)[C@H]3CC[C@@]21C`
active

Outcome? `Cc1ccc2n[nH]nc2c1`
inactive

Outcome logged for `C=CC(=O)NCOCC(C)C` in this assay:
inactive

What outcome does the record of this test show for `Cc1ccc2ccccc2n1` ?
inactive

State the result this test recorded for `C=CC(=O)OCCn1c(=O)n(CCOC(=O)C=C)c(=O)n(CCOC(=O)C=C)c1=O` .
inactive

Name the outcome recorded for `CCCCCCCCCCCCN(CCCCCCCCCCCC)CCCCCCCCCCCC` in the assay.
inactive

Query: recorded result category for `O=c1cc(-c2ccccc2)oc2cc(O)cc(O)c12` in this test
inactive

Record lookup: outcome of this test for `CC(=O)OCC=Cc1ccccc1` ?
inactive

Please let me know the test result on file for `CCO[Si](CCCS)(OCC)OCC` .
inactive

Each compound tested received a call. Report the one for `[Ca+2]` .
inactive
